# target-of-assay: T1, human IL2Ra (human, UniProt P01589 22-240, limits assumed)
# T1 construct: bought protein, coated on the plate; also called hIL2RA; IL-2 receptor alpha
# T1 sequence (looked up): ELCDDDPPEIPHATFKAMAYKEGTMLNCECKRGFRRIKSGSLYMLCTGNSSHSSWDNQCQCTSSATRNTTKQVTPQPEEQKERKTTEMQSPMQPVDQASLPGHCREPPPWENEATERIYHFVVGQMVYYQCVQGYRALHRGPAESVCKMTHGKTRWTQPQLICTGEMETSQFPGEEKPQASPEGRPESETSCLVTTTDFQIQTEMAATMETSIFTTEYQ
# procedure-details: IL2Ra direct binding ELISA, signal ratio to isotype control
# Procedure: IL2RA (Peprotech, Germany, #200-02RC) was coated at 1 or 0 μg/ml (buffer only control) in 30 μl coating buffer (Candor, #113500) per well on a 384 well microtiter plate (Maxisorb, Nunc, #460518) over night at 4-8° C. After two washes with 50 μl/well washing buffer (PBS+0.05% Tween, pH 7.4), the plates were incubated for two hours at room temperature with 50 μl/well SmartBlock (Candor, #113500). […] Relative fluorescence was measured with a microtiter plate reader at 535/590 nm. […]
Catalogue of hIL2RA ELISA Binding: Ratio to Isotpye values
Answer with a number only, understood to be in ratio.

binder	measurement-name	value-measured
TPP-26304 (antibody, V domains shown) VH: EVQLLESGGGLVQPGGSLRLSCAASGFTFSSYGMHWVRQAPGKGLEWVSVISYDGSYKYYADSVKGRFTISRDNSKNTLYLQMNSLRAEDTAVYYCAAGVPDYWGQGTLVTVSS VL: QSVLTQPPSASGTPGQRVTISCTGSSSNIWAGYDVHWYQQLPGTAPKLLIYSNNERPSGVPDRFSGSKSGTSASLAISGLRSEDEADYYCAAWDDSLNGPVFGGGTKLTVL	hIL2RA ELISA Binding: Ratio to Isotpye	436

-- ask Name the reported hIL2RA ELISA Binding: Ratio to Isotpye value associated with the binder TPP-26291 (antibody, V domains shown) VH: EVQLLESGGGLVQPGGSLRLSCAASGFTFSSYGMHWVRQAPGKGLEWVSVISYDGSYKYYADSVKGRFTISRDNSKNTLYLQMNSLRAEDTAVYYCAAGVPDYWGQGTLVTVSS VL: QSVLTQPPSASGTPGQRVTISCTGSSSNIGAGYDVHWYQQLPGTAPKLLIYSNNERPSGVPDRFSGSKSGTSASLAISGLRSEDEADYYCAAWDPSLNGPVFGGGTKLTVL
-- reply 334
